testedTarget: Disintegrin and metalloproteinase domain-containing protein 10 (Homo sapiens)
method: blockers of ADAM10 peptide cleavage – biochemical, QFRET, HTS, primary screen (AID 720582)
condition: recombinant ADAM10, EDANS/DABCYL FRET peptide cleavage, 3 h; at 7 µM
In all, about 370,000 compounds went through this assay and about 2,300 (0.62%) were called active.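 How the source made its calls: active means inhibition above a per-campaign cutoff equal to the mean of compounds falling between control-based bounds plus 3 SD (cut at about 20% in these data); inactive means the rest.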 Only a selection was taken, and actives are over-represented in it overall.
Bench note: report the call from Y (active), N (inactive)

Input: State the result this test recorded for CCOc1ccccc1NC(=O)c1cc(S(=O)(=O)N2CCC3(CC2)OCCO3)ccc1F .
Output: N

Input: State the result this test recorded for Cc1ccc(C)c(NC(=O)c2ccc(OC(=O)c3ccco3)cc2)c1 .
Output: N

Input: State the result this test recorded for CCOC(=O)C1CCN(C(=O)C(C)(C)NC(=O)Nc2ccccc2Cl)CC1 .
Output: N

Input: State the result this test recorded for O=C(C(=O)N1CCC(CNS(=O)(=O)Cc2ccccc2)CC1)c1cc2ccccc2o1 .
Output: N

Input: State the result this test recorded for CCCCc1c(-c2ccc(Cl)cc2)ncn1CCc1ccccc1OC .
Output: N

Input: State the result this test recorded for CCOC(=O)c1csc(NC(=O)C2CCCN(S(=O)(=O)c3ccc(Cl)s3)C2)n1 (configuration not stated) .
Output: N

Input: State the result this test recorded for CCCCOCCCNC(=O)C[C@H]1C[C@@]2(C(=O)OC)C(=C[C@H](COCc3ccccc3)O[C@@H]2C)N(Cc2cccc3ccccc23)C1=O .
Output: N

Input: State the result this test recorded for O=C(NCC1CC1)c1onc(CSc2ccccc2)c1C(=O)NCC1CC1 .
Output: N

Input: State the result this test recorded for CCC(=O)c1c(CC)c2n3c1=CC[C@H]3CC(Br)C=2 (some centres not stated) .
Output: N

Input: State the result this test recorded for O=C(c1cccc(C(F)(F)F)c1)N1CC[C@H]2[C@H](CCCN2Cc2cc(F)cc(F)c2)C1 .
Output: N

Input: State the result this test recorded for COc1ccc(N2C(=O)C(CC(=O)Nc3ccccc3)N(Cc3ccc(OC)c(OC)c3)C2=O)cc1 (configuration not stated) .
Output: N

Input: State the result this test recorded for O=C(Nc1cc(Cl)cc(Cl)c1)OCCN1CCCC12CCC(c1ccccc1)CC2 (configuration not stated) .
Output: N

Input: State the result this test recorded for COc1ccc(Cl)cc1NC(=O)CN(C)C(=O)CCCc1c[nH]c2ccccc12 .
Output: Y

Input: State the result this test recorded for CC(=O)Nc1ccc(N2C(=O)C3C4CC(=O)C(c5ccccc54)C3C2=O)cc1 (configuration not stated) .
Output: N

Input: State the result this test recorded for Cc1cccc(C(=O)N2CCc3c([nH]c4ccccc34)C2CC(C)C)n1 (configuration not stated) .
Output: N

Input: State the result this test recorded for CCC1(C)Cc2c(sc3nnn(CC(=O)Nc4ccc(Cl)cc4)c(=O)c23)CO1 (configuration not stated) .
Output: Y

Input: State the result this test recorded for COc1ccc(Cn2cc(COC(=O)N(C)Cc3ccccc3)nn2)cc1 .
Output: N

Input: State the result this test recorded for CSCCC1NC2(C(=O)Nc3ccc(Cl)cc32)[C@@H]2C(=O)N(C3CCCC3)C(=O)[C@H]12 (some centres not stated) .
Output: N

Input: State the result this test recorded for CC(C)N1CCCCC(NC(=O)C(C)(C)C)C1=O (configuration not stated) .
Output: N

Input: State the result this test recorded for Cc1cc(C)cc(NC(=O)CSc2ccccc2)c1 .
Output: N

Input: State the result this test recorded for CC(N=Cc1nc(-c2ccccc2)oc1O)c1ccccc1 (configuration not stated) .
Output: Y

Input: State the result this test recorded for COC(CNC(=O)[C@H](Cc1ccccc1)NC1(C(=O)NC2CCCCC2)CCCCC1)OC .
Output: N

Input: State the result this test recorded for N#Cc1cccc(C(=O)NCC2CCN(C(=O)C(=O)c3cc4ccccc4o3)CC2)c1 .
Output: N

Input: State the result this test recorded for Cc1cc(C)cc(NC(=O)CSCc2cnn(-c3ccccc3)c2-n2cccc2)c1 .
Output: Y

Input: State the result this test recorded for O=C(NCc1ccccc1)c1onc(CSc2nc3ccccc3[nH]2)c1C(=O)NCc1ccccc1 .
Output: Y

Input: State the result this test recorded for O=C(C1CCCN1S(=O)(=O)c1ccccc1)N1CCc2ccccc2C1 (configuration not stated) .
Output: N

Input: State the result this test recorded for CCOc1cc(NC(=O)CCl)c(OCC)cc1NC(C)=O .
Output: N

Input: State the result this test recorded for CCOC(=O)Cn1c(SC)nc2sc3c(c2c1=O)CC(C)(C)OC3 .
Output: N

Input: State the result this test recorded for O=C(NCc1ccccc1)c1onc(CSc2ccncc2)c1C(=O)NCc1ccccc1 .
Output: N

Input: State the result this test recorded for CC(C)(C)N1C(=O)[C@H]2[C@@H](c3ccc(Br)cc3)N3C(=O)N(c4cccc(Cl)c4)C(=O)[C@@]3(C)[C@H]2C1=O .
Output: Y

Input: State the result this test recorded for Oc1oc(-c2ccccc2Br)nc1/C=N/c1ccccn1 .
Output: N

Input: State the result this test recorded for CCOC(=O)[C@]12CCCC3=C1N(CCC3)C(=O)[C@@H](CC(=O)N1CCSCC1)C2 .
Output: N

Input: State the result this test recorded for COC(=O)C1CN(CCc2ccccc2)CCS(=O)(=O)N1Cc1ccc(F)cc1 (configuration not stated) .
Output: N

Input: State the result this test recorded for Cc1ccccc1CN1CCCCC(NC(=O)c2cccc(C#N)c2)C1=O (configuration not stated) .
Output: N

Input: State the result this test recorded for COc1ccc(Cl)cc1NC(=O)CN(C)C(=O)c1ccc2n[nH]nc2c1 .
Output: N

Input: State the result this test recorded for CN(C)c1ccc(NC(=S)N(CCc2ccccc2)C2CC(=O)N(c3c(Cl)cccc3Cl)C2=O)cc1 (configuration not stated) .
Output: N

Input: State the result this test recorded for COc1ccc(C2CC(c3ccccc3)=NN2C(=O)c2ccc(Cl)c([N+](=O)[O-])c2)cc1 (configuration not stated) .
Output: N
